experiment: Identification of radiolabeled FAs in brain phospholipids by HPLC and LSC after 14C-EPA infusion; format: in vivo, rat; conditions: ChoGpl, MEP-treated rats;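 note: percent of radiolabeled FAs within each phospholipid class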
Each item that follows carries a reported radiolabeled FA composition.
A number alone suffices; assume %.

# molecule, units-label, radiolabeled FA composition
data = [
    ("CC/C=C\\C/C=C\\C/C=C\\C/C=C\\C/C=C\\C/C=C\\CCC(=O)O [DHA, docosahexaenoic acid]", "%", 4),
]

# input molecule: CCCCCCCCCCCCCCCC(=O)O [Palmitate, [1-14C]palmitate] ; wanted: its radiolabeled FA composition
3

Fill in the blank: the reported radiolabeled FA composition of CC/C=C\C/C=C\C/C=C\C/C=C\C/C=C\CCCCCC(=O)O [n-3 DPA, n-3 docosapentaenoic acid] is ____.
26

Would you mind telling me what radiolabeled FA composition value was observed for CC/C=C\C/C=C\C/C=C\C/C=C\C/C=C\CCCC(=O)O [EPA, eicosapentaenoic acid] ?
66

* * *

Assay: In vivo kinetics of FA incorporation and turnover in brain phospholipids (intravenous radiotracer infusion, kinetic model)
Set-up: species or system rat
Details: EtnGpl; MEP
Experimental: Twenty-four hours postsurgery, a second catheter (iv catheter 24 gauge/0.75 inch, Angiocath™; Becton Dickinson) was implanted into the tail vein where rats received either vehicle or 10 mg/kg of MEP. […] The radiotracers were infused for 5 min via the tail vein catheter at a rate of 0.223(1 + e^−19.2t) ml/min (t is infusion time in minutes) ([37]) which achieves a steady-state plasma radioactivity within 1 min ([18], [38]). […]
compounds and their reported JFA net incorporation rate from brain acyl-CoA
Write the value in nmol/g/day as a bare number.

Before answering, review these 2 worked examples.
# compound, assay-result
records = [
    ("CC/C=C\\C/C=C\\C/C=C\\C/C=C\\C/C=C\\CCCCCC(=O)O [EPA→n-3 DPA]", 13),
    ("CC/C=C\\C/C=C\\C/C=C\\C/C=C\\C/C=C\\CCCC(=O)O [EPA, eicosapentaenoic acid]", 5.4),
]

Look at this compound and give its reported JFA net incorporation rate from brain acyl-CoA. CC/C=C\C/C=C\C/C=C\C/C=C\C/C=C\C/C=C\CCC(=O)O [EPA→DHA]
3.1

* * *

experiment: In vivo kinetics of FA incorporation and turnover in brain phospholipids (intravenous radiotracer infusion, kinetic model); set-up: species or system rat; details: Total PL; MEP
Here the recorded FFA rate of turnover is given for each entry.
Field format: number, assumed %/day, no unit text.

# compound, FFA rate of turnover (%/day)
data = [
    ("CCCCCCCCCCCCCCCC(=O)O [Palmitate, [1-14C]palmitate]", 80),
]

I'd like to know its FFA rate of turnover. The compound in question is CC/C=C\C/C=C\C/C=C\C/C=C\C/C=C\C/C=C\CCC(=O)O [DHA, docosahexaenoic acid]
51

Name the recorded FFA rate of turnover for CC/C=C\C/C=C\C/C=C\C/C=C\C/C=C\C/C=C\CCC(=O)O [EPA→DHA] .
0.022

Look at this compound and give its reported FFA rate of turnover. CC/C=C\C/C=C\C/C=C\C/C=C\C/C=C\CCCC(=O)O [EPA, eicosapentaenoic acid]
17

I have this compound here, CC/C=C\C/C=C\C/C=C\C/C=C\C/C=C\CCCCCC(=O)O [EPA→n-3 DPA] , and I need its recorded FFA rate of turnover.
149

* * *

Experiment: In vivo kinetics of FA incorporation and turnover in brain phospholipids (intravenous radiotracer infusion, kinetic model)
Design: species or system rat
Conditions: ChoGpl; Vehicle
Protocol: Twenty-four hours postsurgery, a second catheter (iv catheter 24 gauge/0.75 inch, Angiocath™; Becton Dickinson) was implanted into the tail vein where rats received either vehicle or 10 mg/kg of MEP. […] The radiotracers were infused for 5 min via the tail vein catheter at a rate of 0.223(1 + e^−19.2t) ml/min (t is infusion time in minutes) ([37]) which achieves a steady-state plasma radioactivity within 1 min ([18], [38]). […]
parameter: Jin net incorporation rate from plasma unesterified FA (nmol/g/day)
Expressed in nmol/g/day, but write only the number.

# molecule, units-label, assay-result
rows = [
    ("CC/C=C\\C/C=C\\C/C=C\\C/C=C\\C/C=C\\C/C=C\\CCC(=O)O [DHA, docosahexaenoic acid]", "nmol/g/day", 5.2),
    ("CC/C=C\\C/C=C\\C/C=C\\C/C=C\\C/C=C\\C/C=C\\CCC(=O)O [EPA→DHA]", "nmol/g/day", 0.46),
    ("CC/C=C\\C/C=C\\C/C=C\\C/C=C\\C/C=C\\CCCC(=O)O", "nmol/g/day", 2.8),
]

Quick one: Jin net incorporation rate from plasma unesterified FA of `CC/C=C\C/C=C\C/C=C\C/C=C\C/C=C\CCCCCC(=O)O` ?
0.79

* * *

experiment: In vivo kinetics of FA incorporation and turnover in brain phospholipids (intravenous radiotracer infusion, kinetic model); parameters: species or system rat; conditions: EtnGpl; MEP
parameter: Jin net incorporation rate from plasma unesterified FA
The reply must contain the numeric value and, after it, the unit.

// known answers, use as guide
# molecule, assay-result
rows = [
    ("CC/C=C\\C/C=C\\C/C=C\\C/C=C\\C/C=C\\C/C=C\\CCC(=O)O [EPA→DHA]", "0.71 ± 0.1 nmol/g/day"),
    ("CC/C=C\\C/C=C\\C/C=C\\C/C=C\\C/C=C\\CCCCCC(=O)O [EPA→n-3 DPA]", "3.0 ± 0.43 nmol/g/day"),
    ("CC/C=C\\C/C=C\\C/C=C\\C/C=C\\C/C=C\\CCCC(=O)O [EPA, eicosapentaenoic acid]", "1.2 ± 0.17 nmol/g/day"),
]

Consider the molecule CC/C=C\C/C=C\C/C=C\C/C=C\C/C=C\C/C=C\CCC(=O)O [DHA, docosahexaenoic acid] and give its measured Jin net incorporation rate from plasma unesterified FA.
7.2 ± 1.2 nmol/g/day

* * *

assay: In vivo kinetics of FA incorporation and turnover in brain phospholipids (intravenous radiotracer infusion, kinetic model); parameters: species or system rat; settings: PtdSer; MEP
parameter: FFA rate of turnover
The number alone won't do; follow it with the unit.

Use the examples below as a reference point.
# molecule, assay-result
measured = [
    ("CCCCCCCCCCCCCCCC(=O)O [Palmitate, [1-14C]palmitate]", "261 ± 194 %/day"),
    ("CC/C=C\\C/C=C\\C/C=C\\C/C=C\\C/C=C\\CCCC(=O)O [EPA, eicosapentaenoic acid]", "3.1 ± 0.43 %/day"),
    ("CC/C=C\\C/C=C\\C/C=C\\C/C=C\\C/C=C\\C/C=C\\CCC(=O)O [DHA, docosahexaenoic acid]", "8.4 ± 3.1 %/day"),
]

Reported FFA rate of turnover for CC/C=C\C/C=C\C/C=C\C/C=C\C/C=C\CCCCCC(=O)O [EPA→n-3 DPA] : what is it?
20 ± 3.6 %/day

* * *

FFA rate of turnover: recorded values
assay: In vivo kinetics of FA incorporation and turnover in brain phospholipids (intravenous radiotracer infusion, kinetic model); set-up: species or system rat; settings: EtnGpl; MEP
Report the figure in %/day without appending any unit label.

Check out these entries, answers already filled in.
# compound, assay-result
rows = [
    ("CC/C=C\\C/C=C\\C/C=C\\C/C=C\\C/C=C\\C/C=C\\CCC(=O)O [EPA→DHA]", 0.054),
    ("CC/C=C\\C/C=C\\C/C=C\\C/C=C\\C/C=C\\CCCC(=O)O", 9.5),
    ("CC/C=C\\C/C=C\\C/C=C\\C/C=C\\C/C=C\\CCCCCC(=O)O", 153),
]

Quick one: FFA rate of turnover for CC/C=C\C/C=C\C/C=C\C/C=C\C/C=C\C/C=C\CCC(=O)O [DHA, docosahexaenoic acid] ?
37

Which FFA rate of turnover is reported for this compound? CCCCCCCCCCCCCCCC(=O)O [Palmitate, [1-14C]palmitate]
110

* * *

assay: In vivo kinetics of FA incorporation and turnover in brain phospholipids (intravenous radiotracer infusion, kinetic model); design: species or system rat; conditions: ChoGpl; MEP
parameter: JFA net incorporation rate from brain acyl-CoA

What value of JFA net incorporation rate from brain acyl-CoA has been reported for the following compound? CCCCCCCCCCCCCCCC(=O)O [Palmitate, [1-14C]palmitate]
12,720 ± 3,120 nmol/g/day

Recorded JFA net incorporation rate from brain acyl-CoA for CC/C=C\C/C=C\C/C=C\C/C=C\C/C=C\C/C=C\CCC(=O)O [EPA→DHA] , please?
0.98 ± 0.14 nmol/g/day

// query JFA net incorporation rate from brain acyl-CoA value for entry CC/C=C\C/C=C\C/C=C\C/C=C\C/C=C\C/C=C\CCC(=O)O [DHA, docosahexaenoic acid]
1,234 ± 344 nmol/g/day

Recorded JFA net incorporation rate from brain acyl-CoA for `CC/C=C\C/C=C\C/C=C\C/C=C\C/C=C\CCCCCC(=O)O` , please?
6.2 ± 0.91 nmol/g/day

Item under review: `CC/C=C\C/C=C\C/C=C\C/C=C\C/C=C\CCCC(=O)O` . Reported JFA net incorporation rate from brain acyl-CoA?
16 ± 2.3 nmol/g/day
